Target: T1, Kap104p (yeast (S. cerevisiae), UniProt P38217 1-918)
T1 construct: Kap104p, yeast homolog of Kapβ2; gene a gift from J. Aitchison, subcloned into pGEX-Tev; also called yeast Karyopherin β2 homolog; source: E. coli Rosetta(DE3)pLysS, purified (glutathione sepharose, TEV cleavage, anion exchange, gel filtration)
T1 sequence (looked up): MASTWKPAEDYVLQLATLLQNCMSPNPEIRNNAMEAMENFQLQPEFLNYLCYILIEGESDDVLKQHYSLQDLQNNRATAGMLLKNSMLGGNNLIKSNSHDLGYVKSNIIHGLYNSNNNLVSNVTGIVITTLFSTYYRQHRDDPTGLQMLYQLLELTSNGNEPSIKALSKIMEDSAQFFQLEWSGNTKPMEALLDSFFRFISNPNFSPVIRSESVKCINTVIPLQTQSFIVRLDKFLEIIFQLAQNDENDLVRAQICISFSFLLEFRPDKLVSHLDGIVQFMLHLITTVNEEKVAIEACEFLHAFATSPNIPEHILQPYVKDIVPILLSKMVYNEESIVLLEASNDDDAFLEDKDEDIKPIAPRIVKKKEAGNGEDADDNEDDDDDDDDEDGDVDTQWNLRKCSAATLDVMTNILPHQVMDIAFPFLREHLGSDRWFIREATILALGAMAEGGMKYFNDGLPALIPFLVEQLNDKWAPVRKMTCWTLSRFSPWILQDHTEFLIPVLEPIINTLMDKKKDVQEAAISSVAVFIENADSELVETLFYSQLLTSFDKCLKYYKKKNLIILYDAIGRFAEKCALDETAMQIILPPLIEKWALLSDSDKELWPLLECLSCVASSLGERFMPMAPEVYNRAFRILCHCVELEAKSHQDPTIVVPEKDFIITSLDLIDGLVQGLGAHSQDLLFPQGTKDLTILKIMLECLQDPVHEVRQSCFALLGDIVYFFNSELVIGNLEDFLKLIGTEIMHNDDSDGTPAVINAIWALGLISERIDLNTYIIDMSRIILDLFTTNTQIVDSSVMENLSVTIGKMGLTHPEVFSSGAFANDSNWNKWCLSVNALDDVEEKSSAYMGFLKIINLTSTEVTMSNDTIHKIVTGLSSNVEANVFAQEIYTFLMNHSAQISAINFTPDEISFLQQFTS
Assay: ITC; 90–350 μM MBP-NLS titrated into 9–35 μM Kap104p in the cell; 20 °C; 20 mM Tris pH 7.5, 100 mM NaCl, 2 mM β-mercaptoethanol, 10% glycerol; 35 injections of 8 μl; single-site model
Settings: both partners purified
Endpoint: KD,mutant/KD,wild type

Query: Given MBP–Nab2p NLS R218A (domain or fragment, S. cerevisiae, UniProt P32505 201-251, looked up, Nab2p NLS, residues 201-251; source: E. coli BL21(DE3), purified (amylose resin, cation exchange)) DNSQRFTQRGGGAVGKNARGGRGGNRGGRNNNSTRFNPLAKALGMAGESNM , respond with its KD,mutant/KD,wild type.
Response: ~1

Query: Given MBP–Nab2p NLS R229A (domain or fragment, S. cerevisiae, UniProt P32505 201-251, looked up, Nab2p NLS, residues 201-251; source: E. coli BL21(DE3), purified (amylose resin, cation exchange)) DNSQRFTQRGGGAVGKNRRGGRGGNRGGANNNSTRFNPLAKALGMAGESNM , respond with its KD,mutant/KD,wild type.
Response: ~1

Query: Given MBP–Nab2p NLS R226A (domain or fragment, S. cerevisiae, UniProt P32505 201-251, looked up, Nab2p NLS, residues 201-251; source: E. coli BL21(DE3), purified (amylose resin, cation exchange)) DNSQRFTQRGGGAVGKNRRGGRGGNAGGRNNNSTRFNPLAKALGMAGESNM , respond with its KD,mutant/KD,wild type.
Response: ~1
